Assay: NCI Yeast Anticancer Drug Screen. Data for the sgs1 mgt1 strain (AID 161);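 further: 0% = growth of cultures given vehicle only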
Conditions: S. cerevisiae sgs1 mgt1 strain, at 50.0 µM, stronger effect = higher value
Protocol: Growth inhibition of yeast strains with defined genetic alterations is measured as a screen for potential anti-cancer activity. Selected strains with alterations in DNA damage repair or cell cycle control were exposed to compounds and growth inhibition was measured relative to vehicle treated controls. The strain used in this assay is sgs1 mgt1
This is part of a sample that, as a whole, favours compounds with a hit. Of some 79,000 tested, about 15% had one in any assay.
Items are presented alongside their recorded growth inhibition.
Expressed in %, but write only the number.

Past entries and their recorded results:
1. CCC1CN(CC(=O)c2ccc(Br)cc2)CCO1 (configuration not stated)    39.9
2. CC(=O)OC1OC(CS[As](C)C)C(OC(C)=O)C(OC(C)=O)C1OC(C)=O (configuration not stated)    54.8
3. CC(=O)CC(C)=O.CC(=O)CC(C)=O.CC(=O)CC(C)=O.[Tb]    -3.95
4. O=S(=O)(c1ccccc1)N1CC1CI (configuration not stated)    13.9
5. C1CC[N+]2=C(C1)OCCC2    6.75
6. C[C@@H]1C[C@@H]2c3cccc4c3c(cn4CO)C[C@H]2N(C)C1    28.6

Okay, now this compound:
Data request: Reported growth inhibition for CC(=O)C1=C(O)C2C3c4c[nH]c5cccc(c45)CC3C(C)(C)N2C1=O (configuration not stated) : what is it?
Data returned: 23.9
